Listed below: koff values for each entry.
Target: T1, hPRLR.mmh (soluble monomeric human PRLR) (human)
T1 construct: called soluble monomeric PRLR protein
T1 chain: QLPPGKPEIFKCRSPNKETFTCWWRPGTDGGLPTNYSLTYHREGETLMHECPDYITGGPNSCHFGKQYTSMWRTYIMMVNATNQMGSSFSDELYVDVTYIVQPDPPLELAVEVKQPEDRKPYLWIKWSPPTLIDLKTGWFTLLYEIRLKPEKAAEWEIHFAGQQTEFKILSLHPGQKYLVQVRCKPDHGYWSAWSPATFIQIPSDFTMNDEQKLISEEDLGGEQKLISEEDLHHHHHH
Assay: SPR Biacore, 25 C, mAb capture
Assay readout: koff (s⁻¹)

Binder	Endpoint value
H1H6960N (antibody, human IgG1, V domains shown, Tested with human IgG1 Fc (H1H); also called H2M6960N) VH: EVQLVESGGGLVKPGGSLRLSCAASGITFSSYSMNWVRQAPGKGLEWVSSISTRSSLIHYADSVKGRFTISRDNAKNSLYLQMNSLRDEDTAVYYCARWDAAAAFDYWGQGTLVIVSS VL: DIQLTQSPSFLSASVGDRVTITCWASQGISSYLAWYQQKPGKAPKLLIYVASTLQSGVPSRFSGSGSGTEFTLTISSLQPEDFATYFCQQLNSYPLTFGGGTKVEIK	0.000729
H1H6795P (antibody, human IgG1, V domains shown, Human IgG1 Fc (H1H)) VH: QVQLVQSGAEVKKPGASVKVSCKASGYTFGTSGITWVRQAPGQGLEWMGWSSAYNGKTDYAQKFQDRVTMTTDTSTTTGYMEMRSLTSDDTAVYYCTTVVRRPFDFWGQGTLVTVSS VL: DIQMTQSPSSLSASVGDRVTITCRASQDINNFLAWFQQKPGKAPKSLIYAASSLQSGVPSKFSGGGSGTDFALTISSLQPEDFATYYCQQYSSYPITFGQGTRLEIK	0.00177
H1H6976N (antibody, human IgG1, V domains shown, Tested with human IgG1 Fc (H1H); also called H2M6976N) VH: EVQLLESGGGFVQPGGSLRLSCAASGFTFSSYAMSWVRQAPGKGLEWVSIISSNGRYTYYADSVKGRFTISRDNSKNTLYLQMNSLRAEDTAVYYCATVTGDWFDPWGQGTLVTVSS VL: DIQLTQSPSFLSASVGDRVTITCWASQDIDISLAWYQQKPGKAPKLLIYAASTLQSGVPSKFSGSGSGTDFTLTISSLQPEDFSTYYCQQLNSYPITFGQGTRLDIK	0.000864
